Taken from patent US20200317817A1.

Target: T1, recombinant N-terminal extracellular domain of the human PTH1R receptor (human, UniProt Q03431 27-188, limits assumed)
T1 construct: domain: N-terminal extracellular domain; Bought reagent; also called N-ECD PTH1R; PTH1R N-terminal ECD
T1 sequence (looked up): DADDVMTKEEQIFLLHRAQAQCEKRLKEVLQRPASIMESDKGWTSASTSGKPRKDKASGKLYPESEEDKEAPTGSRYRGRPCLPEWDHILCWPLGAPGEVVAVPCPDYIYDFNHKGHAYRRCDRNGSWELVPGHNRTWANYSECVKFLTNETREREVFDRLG
Assay: SPR, IgG captured, ECD injected
Criterion met means recorded koff is 0.001 s⁻¹ or above; Criterion not met means it is below 0.001 s⁻¹.

Dear colleague, could you confirm whether XPA.85.332 (antibody, V domains shown, Light-chain-shuffled variant of XPA.85.012) VH: QMQLVQSGAEVKKPGSSVKVSCKASGGTFSSYAISWVRQAPGQGLEWMGGIIPIFGTANYAQKFQGRVTITADESTSTAYMELSSLRSEDTAVYYCARGYVVARLWGQGTLVTVSS VL: ETTLTQSPAFMSASVGDRVTITCQASQDINNFLNWYQQKPGKAPKFLIYDASNLEKGVPSKFSGRGSGTEFTLTISSLQPEDIATYYCQQYRDFPLTFGQGTRLEIK has koff at or above 0.001 s⁻¹?
Criterion met

Determine whether measured koff meets or exceeds 0.001 s⁻¹ for XPA.85.342 (antibody, V domains shown, Light-chain-shuffled variant of XPA.85.012) VH: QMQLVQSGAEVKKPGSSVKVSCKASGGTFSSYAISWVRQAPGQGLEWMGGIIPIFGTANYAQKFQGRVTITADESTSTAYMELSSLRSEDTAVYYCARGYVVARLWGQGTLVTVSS VL: ETTLTQSPTFMSASVGDRVTITCQASQDINNFLNWYQQKPGKAPKFLIYDASNLEKGVPSRFSGRGSGTEFTLTISSLQPEDIATYYCQQYRDFPLTFGQGTRLEIK
Criterion met

Please indicate if the recorded koff for XPA.85.341 (antibody, V domains shown, Light-chain-shuffled variant of XPA.85.017) VH: EVQLVETGGGVVRPGGSLRLSCAASGFTFSSSAMSWVRQTPGKELQWVSAITPGGEGTYYADVVKGRFTISRDNSKDTLYLQMDSLRAEDTAVYYCARDLYGSYGDAFDIWGQGTLVTVSS VL: SYELTQPSSVSVSPGQTASITCSGDKLGEKYASWYQQKPGQSPVLVMFEDTKRPSGIPERFSGSNSGNTATLTISGTQAEDEADYYCQAWDSSWVFGGGTQLTVL meets or exceeds 0.001 s⁻¹.
Criterion not met

Identify whether the reported koff of the following binder is 0.001 s⁻¹ or greater: XPA.85.336 (antibody, V domains shown, Light-chain-shuffled variant of XPA.85.017) VH: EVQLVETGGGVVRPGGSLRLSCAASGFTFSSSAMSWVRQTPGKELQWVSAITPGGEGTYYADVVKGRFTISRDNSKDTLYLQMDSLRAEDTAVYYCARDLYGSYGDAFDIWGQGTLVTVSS VL: QSVLTQPPSVSAAPGQKVTISCSGTGSNIGSNYVAWYQQLPGTAPKLLIYDDNKRPSGTPDRFSGSKSGTSATLVIAGLQTGDEADYYCGTWDNTLNVGGVFGGGTQLTVL
Criterion met

State whether the measured koff reaches 0.001 s⁻¹, counting equality as reaching it, for XPA.85.326 (antibody, V domains shown, Light-chain-shuffled variant of XPA.85.012) VH: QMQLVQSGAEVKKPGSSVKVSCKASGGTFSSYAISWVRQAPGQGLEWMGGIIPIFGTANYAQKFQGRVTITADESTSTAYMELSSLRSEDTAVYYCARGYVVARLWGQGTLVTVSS VL: DIVMTQTPLSLSVTPGQPASISCKSSQSLLHIDGLTYLYWYLQKPGQPPQLLIYEVSHRFSGVSDKFSGSGSGTDFTLTISRVEAEDVGVYYCMQSLHLPITFGQGTRLEIK
Criterion not met
